System: PPARg DBDmut IVT, anti-PPARg (DBD mutation: PPARg1 K132A/R137A, NR concentration 270 nM)
Assay: PBM binding z-score (relative to random genomic background probes); higher = stronger binding; sequences stand for … in GC…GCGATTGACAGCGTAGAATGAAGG
Rule: 1 (yes) for PBM binding z-score not less than -0.7, 0 (no) for anything less.

Please review the entries below; each comes with its answer.
## Task Tell me whether PBM binding z-score is at least -0.7 here: GAAACGAGGGCAAGTTGATAGCAGAGTTTGATGG
## Result 1 (yes)

## Task Tell me whether PBM binding z-score is at least -0.7 here: ATCTCTAGGCAAAAGTTCAGTGAATCCCGAGGAT
## Result 1 (yes)

## Task Tell me whether PBM binding z-score is at least -0.7 here: TAGCCTAGGGCATGCGGGCCAGTATAGTGTCGGC
## Result 0 (no)

## Task Tell me whether PBM binding z-score is at least -0.7 here: ACTAGCAGGCCAAGTTTGGGTAACTCAAACAAAG
## Result 0 (no)

## Task Tell me whether PBM binding z-score is at least -0.7 here: AGTCATAGTTCATCTAGGTAACGTAAGATATGCT
## Result 1 (yes)

Continuing:
## Task Tell me whether PBM binding z-score is at least -0.7 here: AATACAGGGTCATAGTAGGCCAGAGTACGCACAG
## Result 1 (yes)

## Task Tell me whether PBM binding z-score is at least -0.7 here: CAAACTAGGTCGCCGGAAGGTCAAAGTCCGCATG
## Result 1 (yes)

---

Tested on: PPARg:RXRa 30nM:10nM, anti-RXR (NR concentration 30 nM, RXRa partner concentration 10 nM)
Test: PBM binding z-score (relative to random genomic background probes); higher = stronger binding; sequences stand for … in GC…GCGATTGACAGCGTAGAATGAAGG
Rule: T for PBM binding z-score not less than 2, F for anything less.

## Task Tell me whether PBM binding z-score is at least 2 here: AGAATGAGGTTATTTAGATCAGGGAATTGCGGTC
## Result F

## Task Tell me whether PBM binding z-score is at least 2 here: CCTTACGGGTCACGAGGTTATAGTACGACGAGCG
## Result T

## Task Tell me whether PBM binding z-score is at least 2 here: CGTCCATGGTCAATGCTAGGTCAGTGAAAGCATT
## Result F

## Task Tell me whether PBM binding z-score is at least 2 here: ATCTCTAGGTAAAGTTCAGTGTAAGATCGATAGA
## Result T

---

Tested on: RARg:RXRa (NR concentration 270 nM, RXRa partner concentration 90 nM)
Assay: PBM binding z-score (relative to random genomic background probes); higher = stronger binding; sequences stand for … in GC…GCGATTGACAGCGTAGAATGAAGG
Rule: 1 (yes) for PBM binding z-score not less than 2, 0 (no) for anything less.

## Task Tell me whether PBM binding z-score is at least 2 here: TCTGGTAGATCAAAGGTTAAGAAAGCCGAAGCCT
## Result 0 (no)

Continuing:
## Task Tell me whether PBM binding z-score is at least 2 here: ATCTCTAGGTAAGACTCAGTTCAGTGTAGAACGC
## Result 0 (no)

## Task Tell me whether PBM binding z-score is at least 2 here: TATACAGGGTCACAGGCCAGAGTACGAATGTCGA
## Result 1 (yes)

## Task Tell me whether PBM binding z-score is at least 2 here: AACTCTAGGTAAAAGTTCAGTGAATCCCGAGGAT
## Result 0 (no)

## Task Tell me whether PBM binding z-score is at least 2 here: CCTCGGAGGACAACAGGAGGTCAGAACTGCCAGA
## Result 1 (yes)

## Task Tell me whether PBM binding z-score is at least 2 here: AGCGAAAGGTCGTGAGGTGAGTATACAGAAAGGC
## Result 1 (yes)
